# Measured On: tau (Homo sapiens)
# Test Method Notes: MCE Phenols Library screening, tau biosensor cell seeding assay (AvZ)
# Format: cell-based
# Conditions Used: average of raw data 1 and 2
Listed compounds paired with reported av puncta
Assay Readout: av puncta

>>> print(df.to_string())
                                   compound         measured_on   result
0  CC(C)c1cc2c(c(O)c1O)[C@@]13CCCC(C)(C)[C@@H]1C[C@@H]2OC3=O  tau (Homo sapiens)  19780.5
1  OC[C@H]1O[C@@H](Oc2ccc(O)cc2)[C@H](O)[C@@H](O)[C@@H]1O [?-Arbutin]  tau (Homo sapiens)  34202.6
2  C=C(C)[C@H](CC=C(C)C)Cc1c(O)cc(OC)c2c1O[C@H](c1ccc(O)cc1OC)CC2=O  tau (Homo sapiens)  25999.8
3  COc1ccc(C[C@@H]2c3cc(Oc4cc(C[C@@H]5c6cc(O)c(OC)cc6CCN5C)ccc4O)c(OC)cc3CCN2C)cc1  tau (Homo sapiens)  22459.5
4  COc1cc(-c2cc(=O)c3c(O)c(OC)c(O)cc3o2)ccc1O  tau (Homo sapiens)  30766.9

---

# Measured On: tau (Homo sapiens)
# Test Method Notes: MCE Phenols Library screening, tau biosensor cell seeding assay (AvZ)
# Format: cell-based
# Conditions Used: average of raw data 1 and 2
Assay Readout: av puncta

Compound	Assay Readout	Result
O=C(O)CNC(=O)c1cccc(O)c1 [3-Hydroxyhippuric acid]	av puncta	20125.5
O=c1c(O)c(-c2ccc(O)cc2O)oc2cc(O)cc(O)c12 [Morin]	av puncta	3543.97
Oc1cc(O)c2c(c1)O[C@H](c1ccc(O)c(O)c1)[C@H](O)[C@H]2c1c(O)cc(O)c2c1O[C@H](c1ccc(O)c(O)c1)[C@H](O)[C@H]2c1c(O)cc(O)c2c1O[C@H](c1ccc(O)c(O)c1)[C@H](O)C2 [Procyanidin C1]	av puncta	32664.3
O=c1cc(-c2ccccc2)oc2c(O)c(O)ccc12 [7,8-Dihydroxyflavone]	av puncta	32989.2
O=C(O)Cc1cc(I)c(Oc2cc(I)c(O)c(I)c2)c(I)c1 [Tetrac]	av puncta	18236.7
OC[C@H]1O[C@@H](Oc2cc3c(O)cc(O)cc3[o+]c2-c2cc(O)c(O)c(O)c2)[C@H](O)[C@@H](O)[C@@H]1O.[Cl-] [Delphinidin 3-glucoside (chloride)]	av puncta	5928.77
O=c1c(O[C@@H]2O[C@H](CO)[C@@H](O)[C@H](O)[C@H]2O[C@@H]2O[C@H](CO)[C@@H](O)[C@H](O)[C@H]2O)c(-c2ccc(O)c(O)c2)oc2cc(O)cc(O)c12 [Baimaside]	av puncta	31424.7
Oc1cc(O)c2cc(O)c(-c3cc(O)c(O)c(O)c3)[o+]c2c1.[Cl-] [Delphinidin (chloride)]	av puncta	2997.99
O=C(O)[C@H]1O[C@@H](Oc2cc(O)c3c(=O)cc(-c4ccccc4)oc3c2)[C@H](O)[C@@H](O)[C@@H]1O [Chrysin-7-O-glucuronide]	av puncta	24687.2

---

# Measured On: UniProt:P10636
# Test Method Notes: MCE Phenols Library screening, tau biosensor cell seeding assay (AvZ)
# Assay type: cell-based
# Conditions Used: average of raw data 1 and 2

Compound	av puncta
Oc1cc(O)c2c(c1)O[C@@H](c1cc(O)c(O)c(O)c1)[C@H](O)C2 [(-)-Gallocatechin]	7661.42
C[C@H]1O[C@@H](O[C@H]2[C@H](Oc3c(-c4ccc(O)cc4)oc4cc(O)cc(O)c4c3=O)O[C@@H](CO)[C@H](O)[C@H]2O)[C@H](O)[C@@H](O)[C@@H]1O [Kaempferol-3-O-glucorhamnoside]	10603.6
NCCCN(CCCCNCCCNC(=O)CCc1ccc(O)c(O)c1)C(=O)CCc1ccc(O)c(O)c1	8130.71
COc1cc(C[C@@H](CO)[C@H](CO)Cc2ccc(O)c(OC)c2)ccc1O [(+)-Secoisolariciresinol]	26875.3
O=c1ccc2cc(O)ccc2o1 [6-Hydroxycoumarin]	19344
COc1cc2c(cc1O)CC[n+]1cc3c4c(ccc3cc1-2)OCO4	21762.9

---

Listed molecules paired with reported Z Repl 2
# Measured On: tau (Homo sapiens, UniProt P10636)
# Sequence (P10636 623-695 limits assumed): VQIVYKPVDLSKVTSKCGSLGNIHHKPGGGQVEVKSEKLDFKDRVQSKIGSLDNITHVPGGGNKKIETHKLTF
# Test Method Notes: MCE Phenols Library screening, tau biosensor cell seeding assay (AvZ)
# Format: cell-based
# Conditions Used: Z score, replicate 2

Molecule	Z Repl 2
O=C(/C=C/c1ccc(O)c(O)c1)c1ccc(O)c(O)c1O	-1.187
CCc1c(Cl)c(O)c(Cl)c(O)c1C(=O)O[C@H]1[C@H](O)[C@H](OC)[C@H](OC/C2=C\C=C\C[C@H](O)/C(C)=C/[C@H](CC)[C@@H](O[C@@H]3OC(C)(C)[C@@H](OC(=O)C(C)C)[C@H](O)[C@@H]3O)/C(C)=C/C(C)=C/C[C@@H]([C@@H](C)O)OC2=O)O[C@@H]1C	0.717
C[C@@H]1O[C@@H](OC[C@H]2O[C@@H](Oc3c(-c4ccc(O)cc4)oc4cc(O)cc(O)c4c3=O)[C@H](O[C@@H]3O[C@@H](C)[C@H](O)[C@@H](O)[C@H]3O)[C@@H](O)[C@@H]2O)[C@H](O)[C@H](O)[C@H]1O	-0.968
COc1ccc2cc3[n+](cc2c1O)CCc1cc2c(cc1-3)OCO2.[Cl-] [Berberrubine (chloride)]	-0.189
COc1cc(-c2oc3cc(O)cc(O)c3c(=O)c2O[C@@H]2O[C@H](CO[C@@H]3O[C@@H](C)[C@H](O)[C@@H](O)[C@H]3O)[C@@H](O)[C@H](O)[C@H]2O[C@@H]2O[C@@H](C)[C@H](O)[C@@H](O)[C@H]2O)ccc1O [Typhaneoside]	-0.068
O=c1cc(-c2ccc(O)c(O)c2)oc2cc(O[C@@H]3O[C@H](CO)[C@@H](O)[C@H](O)[C@H]3O)c(O)c(O)c12 [6-Hydroxyluteolin 7-glucoside]	-0.979
Cc1cc(O)c2c(=O)c3c(O)cc(O)c4c5c(O)cc(O)c6c(=O)c7c(O)cc(C)c8c1c2c(c34)c(c78)c65	-0.424
CC(Cc1ccc(O)c(O)c1)C(C)Cc1ccc(O)c(O)c1 (stereo not drawn) [Nordihydroguaiaretic acid]	0.012
O=c1cc(O)cc(/C=C/c2ccc(O)c(O)c2)o1	-0.112
COc1ccc(-c2coc3cc(O[C@@H]4O[C@H](CO)[C@@H](O)[C@H](O)[C@H]4O)ccc3c2=O)cc1O [Calycosin-7-O-?-D-glucoside]	1.127
O=c1cc(-c2ccc(O)c(O)c2)oc2c([C@@H]3O[C@H](CO)[C@@H](O)[C@H](O)[C@H]3O)c(O)cc(O)c12	-0.368
CCC1(c2ccc(O)cc2)NC(=O)N(C)C1=O (stereo not drawn) [4-Hydroxymephenytoin]	-0.754
COc1cc2c(c(O)c1OC)-c1c(cc(OC)c(OC)c1OC)C[C@@H](C)[C@@H](C)C2	-0.108
O=c1c(O)c(-c2ccc(O)c(O)c2)oc2cc(O[C@@H]3O[C@H](CO)[C@@H](O)[C@H](O)[C@H]3O)c(O)c(O)c12	-1.176
OCc1ccccc1O	-0.555
C=C(C)[C@H](CC=C(C)C)Cc1c(O)cc(O)c2c1O[C@H](c1ccc(O)cc1OC)CC2=O	0.052
COc1cc(C)c2c(=O)cc(C[C@@H](C)O)oc2c1[C@@H]1O[C@H](CO)[C@@H](O)[C@H](O)[C@H]1OC(=O)/C=C/c1ccc(O)cc1	-0.937
CC(C)=CCc1c2ccoc2c(O)c2oc(=O)ccc12	-0.475

---

Listed molecules paired with reported raw data 2
# Measured On: tau (Homo sapiens, UniProt P10636)
# Test Method Notes: MCE Phenols Library screening, tau biosensor cell seeding assay (AvZ)
# Format: cell-based
# Conditions Used: puncta, replicate 2

Molecule	raw data 2
O=C(O)Cc1c[nH]c2ccc(O)cc12 [5-Hydroxyindole-3-acetic acid]	4529.6
COc1ccc(-c2cc(=O)c3c(O)cc(O)cc3o2)cc1 [Acacetin]	10394.7
C#C[C@]1(O)CC[C@H]2[C@@H]3CCc4cc(O)ccc4[C@H]3CC[C@@]21C [Ethynyl Estradiol]	14948.5
COc1c(O)cc2occ(-c3ccc(O)cc3)c(=O)c2c1O [Tectorigenin]	12177
Oc1cc(O)cc(/C=C/c2c(O)cccc2O)c1 [Gnetol]	648.824
O=C(O[C@H]1[C@H](Oc2c(-c3ccc(O)c(O)c3)oc3cc(O)cc(O)c3c2=O)O[C@H](CO)[C@H](O)[C@@H]1O)c1cc(O)c(O)c(O)c1 [2""-O-Galloylhyperin]	4042.85
O=C(/C=C/c1ccc(O)c2oc(-c3ccc(O)c(O)c3)cc12)O[C@H](Cc1ccc(O)c(O)c1)C(=O)O [Salvianolic acid C]	170.893
O=Cc1ccc(O)c(O)c1 [Protocatechualdehyde]	9745.34
O=c1c(O)c(-c2ccc(O)c(O)c2)oc2c(O[C@@H]3O[C@H](CO)[C@@H](O)[C@H](O)[C@H]3O)c(O)cc(O)c12 [Gossypin]	3323.85
O=c1c(O[C@@H]2O[C@@H](CO)[C@H](O)[C@H]2O)c(-c2ccc(O)c(O)c2)oc2cc(O)cc(O)c12 [Avicularin]	25129.7
O=C1c2ccc(O)cc2OCC1c1ccc(O)cc1 (stereo not drawn) [Dihydrodaidzein]	8042.62
O=C(/C=C/c1ccc(O)cc1)c1ccc(O[C@@H]2O[C@H](CO)[C@@H](O)[C@H](O)[C@H]2O)cc1O [Neoisoliquiritin]	16704.1
Nc1ccc(O)c(C(=O)O)c1 [5-Aminosalicylic Acid, reference compound]	14900.2
Oc1cc(O)c2c(c1)O[C@H](c1ccc(O)c(O)c1)[C@H](O)[C@H]2c1c(O)cc(O)c2c1O[C@H](c1ccc(O)c(O)c1)[C@H](O)C2 [Procyanidin B2]	5175.99
Cc1cc(=O)oc2cc(O)cc(O)c12 [5,7-Dihydroxy-4-methylcoumarin]	9548.03
